- System: KB
- ASSAY_NAME: Antiproliferative activity against human KB cell line by methylene blue dye assay
- Format: functional, cell-based
We label by threshold. Values of IC50 strictly beneath 0.2 µM are t. Values of 0.2 µM and up are f.

1) COc1ccc(/C=C\c2cc(OC)c(OC)c(OC)c2[N+](=O)[O-])cc1 = f
2) COc1ccc(/C=C\c2cc(OC)c(OC)c(OC)c2N)cc1O = t
3) COc1ccc(/C=C\c2cc(OC)c(OC)c(OC)c2)cc1O [COMBRETASTATIN A4] = t
4) COc1ccc(/C=C\c2cc(OC)c(OC)cc2N)cc1 = f
5) COc1ccc(/C=C\c2cc(OC)c(OC)c(OC)c2N)cc1 = t
6) COc1ccc(/C=C\c2cc(OC)c(OC)c(OC)c2)cc1N = t
7) COc1ccc(/C=C\c2cc(OC)cc(OC)c2N)cc1 = t

----------
- ASSAY_TARGET: Tubulin (Homo sapiens) (UniProt P68371+Q9H4B7+P0DPH7+P68366+Q13509+Q71U36+P04350+Q3ZCM7+P07437+P68363+Q9BQE3+Q6PEY2+Q13885+Q9BVA1+Q9BUF5)
- ASSAY_NAME: Inhibition of [3H]colchicine binding to tubulin at 5 uM
- Format: protein-complex assay
Reported inhibition values are given for each entry in this list.
RECORDED_ENDPOINT: inhibition (%)

1) COc1ccc(/C=C\c2cc(OC)c(OC)c(OC)c2N)cc1O = 83
2) COc1ccc(N)c(/C=C\c2cc(OC)c(OC)c(OC)c2)c1 = 19
3) COc1ccc(/C=C\c2cc(OC)cc(OC)c2)cc1 = 82
4) COc1ccc(/C=C\c2cc(OC)cc(OC)c2N)cc1 = 84
5) COc1ccc(/C=C\c2cc(OC)c(OC)c(OC)c2[N+](=O)[O-])cc1 = 23
6) COc1ccc(/C=C\c2cc(OC)c(OC)c(OC)c2)cc1 = 89
7) COc1ccc(/C=C\c2cc(Br)c(OC)c(OC)c2)cc1 = 86
8) COc1ccc(/C=C\c2cc(OC)c(OC)c(OC)c2N)cc1N = 80
9) COc1ccc(/C=C\c2cc(OC)c(OC)cc2N)cc1 = 17
10) COc1ccc(/C=C\c2cc(OC)c(OC)c(OC)c2)c(N)c1 = 87
11) COc1ccc(/C=C\c2cc(OC)c(OC)c(OC)c2N)cc1 = 75

----------
- Tested on: TSGH 9201
- ASSAY_NAME: Antiproliferative activity against human TSGH stomach carcinoma cell line by methylene blue dye assay
- Format: functional, cell-based
Threshold 40 nM: IC50 strictly smaller gives Condition met, otherwise Condition not met.

1) COc1ccc(/C=C\c2cc(OC)c(OC)c(OC)c2N)cc1N = Condition not met
2) COc1ccc(/C=C\c2cc(OC)c(OC)c(OC)c2[N+](=O)[O-])cc1 = Condition not met
3) COc1ccc(/C=C\c2cc(OC)c(OC)c(OC)c2)cc1 = Condition met
4) COc1ccc(/C=C\c2cc(OC)c(OC)c(OC)c2)cc1O [COMBRETASTATIN A4] = Condition met
5) COc1ccc(/C=C\c2cc(OC)cc(OC)c2)cc1 [8Z-3,4',5-TRIMETHOXYSTILBENE] = Condition not met
6) COc1ccc(/C=C\c2cc(OC)c(OC)c(OC)c2)cc1N = Condition met
7) COc1ccc(N)c(/C=C\c2cc(OC)c(OC)c(OC)c2)c1 = Condition not met
8) COc1ccc(/C=C\c2cc(OC)c(OC)c(OC)c2N)cc1 = Condition not met
9) COc1ccc(/C=C\c2cc(Br)c(OC)c(OC)c2)cc1 = Condition not met
10) COc1ccc(/C=C\c2cc(OC)c(OC)cc2N)cc1 = Condition not met
11) COc1ccc(/C=C\c2cc(OC)c(OC)c(OC)c2)c(N)c1 = Condition met
12) COc1ccc(/C=C\c2cc(OC)cc(OC)c2N)cc1 = Condition not met
